Data credit: patent EP4782449A1

tested_target: SARM1 (Homo sapiens)
Construct: inventors produced full-length SARM1 for NAD enzyme activity experiments, and used it for screening; His (C); made in house; host or cells: HEK293 cells, transient transfection; supernatant of digitonin lysate, no further purification described
Sequence (Q6SZW1 28-724): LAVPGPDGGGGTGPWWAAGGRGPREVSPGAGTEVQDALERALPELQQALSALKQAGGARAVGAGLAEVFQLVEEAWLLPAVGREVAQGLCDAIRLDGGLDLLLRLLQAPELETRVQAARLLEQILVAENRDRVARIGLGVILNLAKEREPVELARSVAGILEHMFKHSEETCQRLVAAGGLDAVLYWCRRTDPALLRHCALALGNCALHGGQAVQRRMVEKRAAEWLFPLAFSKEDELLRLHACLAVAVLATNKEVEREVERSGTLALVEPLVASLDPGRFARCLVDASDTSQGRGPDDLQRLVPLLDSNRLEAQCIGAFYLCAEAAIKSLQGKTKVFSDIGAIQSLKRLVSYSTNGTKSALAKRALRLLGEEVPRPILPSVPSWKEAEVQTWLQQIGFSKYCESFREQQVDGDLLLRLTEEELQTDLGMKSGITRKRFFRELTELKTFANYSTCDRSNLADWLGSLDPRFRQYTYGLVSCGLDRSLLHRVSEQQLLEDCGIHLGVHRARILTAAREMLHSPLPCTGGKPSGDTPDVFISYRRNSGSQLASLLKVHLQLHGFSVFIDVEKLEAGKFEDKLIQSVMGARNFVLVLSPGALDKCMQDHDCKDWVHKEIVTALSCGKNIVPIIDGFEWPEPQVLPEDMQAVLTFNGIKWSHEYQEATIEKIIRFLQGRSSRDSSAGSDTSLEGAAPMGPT
protocol_notes: In vitro biochemical assay for inhibiting SARM1 enzyme activity (PC6 fluorescence, NADase)
measurement_setup: full-length SARM1 from transfected HEK293 cells; 50 µM NAD, 50 µM PC6, 50 µM NMN activator; room temperature, 30 minutes; read-out: IC50
pIC50: −log10 of the molar value.
property: pIC50

Solved cases (10 shown):
Prompt: # get_value(readout= pIC50, system= SARM1 (Homo sapiens)) for O=C(CCc1ccc2c(c1)CCO2)Nc1ccc2c(c1)COc1cnccc1-2
Completion: 6.00 to 7.00

Prompt: # get_value(readout= pIC50, system= SARM1 (Homo sapiens)) for Cc1ccc(CCC(=O)Nc2ccc3c(c2)COc2cnccc2-3)cc1
Completion: 6.00 to 7.00

Prompt: # get_value(readout= pIC50, system= SARM1 (Homo sapiens)) for O=C(NCc1ccc(F)c(F)c1)Nc1ccc2c(c1)COc1cnccc1-2
Completion: 6.00 to 7.00

Prompt: # get_value(readout= pIC50, system= SARM1 (Homo sapiens)) for O=C1C(Cc2ccc(F)cc2)CCN1c1cnc2c(c1)COc1cnccc1-2 (centres unmarked)
Completion: > 7.00

Prompt: # get_value(readout= pIC50, system= SARM1 (Homo sapiens)) for O=C1C(Cc2cc(F)cc(F)c2)CCN1c1ccc2c(c1)COc1cnccc1-2 (centres unmarked)
Completion: 6.00 to 7.00

Prompt: # get_value(readout= pIC50, system= SARM1 (Homo sapiens)) for O=C(NCc1ccc(Cl)c(F)c1)Nc1ccc2c(c1)COc1cnccc1-2
Completion: 6.00 to 7.00

Prompt: # get_value(readout= pIC50, system= SARM1 (Homo sapiens)) for [2H]C1(Cc2ccc(F)cc2)CCN(c2ccc3c(c2)C([2H])([2H])Oc2cnccc2-3)C1=O (centres unmarked)
Completion: > 7.00

Prompt: # get_value(readout= pIC50, system= SARM1 (Homo sapiens)) for CN(C)c1ccc(CCC(=O)Nc2ccc3c(c2)COc2cnccc2-3)cc1
Completion: 5.00 to 6.00

Prompt: # get_value(readout= pIC50, system= SARM1 (Homo sapiens)) for O=C(CCc1ccc(Cl)cc1)Nc1cnc2c(c1)COc1cnccc1-2
Completion: > 7.00

Prompt: # get_value(readout= pIC50, system= SARM1 (Homo sapiens)) for O=C1C(Cc2ccc(F)cc2F)CCN1c1ccc2c(c1)COc1cnccc1-2 (centres unmarked)
Completion: 5.00 to 6.00

New cases:
Prompt: # get_value(readout= pIC50, system= SARM1 (Homo sapiens)) for O=C1C(Cc2ccc3ocnc3c2)CCN1c1ccc2c(c1)COc1cnccc1-2 (centres unmarked)
Completion: 6.00 to 7.00

Prompt: # get_value(readout= pIC50, system= SARM1 (Homo sapiens)) for O=C1C(Cc2cc(F)c(Cl)c(F)c2)CCN1c1ccc2c(c1)COc1cnccc1-2 (centres unmarked)
Completion: 5.00 to 6.00

Prompt: # get_value(readout= pIC50, system= SARM1 (Homo sapiens)) for N#Cc1ccc(CCC(=O)Nc2ccc3c(c2)COc2cnccc2-3)cc1
Completion: > 7.00

Prompt: # get_value(readout= pIC50, system= SARM1 (Homo sapiens)) for O=C1C(Cc2cccc3c2CCCC3)CCN1c1ccc2c(c1)COc1cnccc1-2 (centres unmarked)
Completion: 5.00 to 6.00

Prompt: # get_value(readout= pIC50, system= SARM1 (Homo sapiens)) for O=C1C(Cc2ccc(F)cc2)CN1c1ccc2c(c1)COc1cnccc1-2 (centres unmarked)
Completion: 6.00 to 7.00

Prompt: # get_value(readout= pIC50, system= SARM1 (Homo sapiens)) for O=C(NCc1cccc(F)c1)Nc1ccc2c(c1)COc1cnccc1-2
Completion: 6.00 to 7.00

Prompt: # get_value(readout= pIC50, system= SARM1 (Homo sapiens)) for CN1Cc2cnccc2-c2ccc(N3CCC(Cc4ccc(F)cc4)C3=O)cc2C1 (centres unmarked)
Completion: 6.00 to 7.00

Prompt: # get_value(readout= pIC50, system= SARM1 (Homo sapiens)) for N#Cc1ccc(CNC(=O)Nc2ccc3c(c2)COc2cnccc2-3)cc1
Completion: 5.00 to 6.00

Prompt: # get_value(readout= pIC50, system= SARM1 (Homo sapiens)) for O=C(Nc1ccc2c(c1)COc1cnccc1-2)C(F)Cc1ccc(Cl)cc1 (centres unmarked)
Completion: 6.00 to 7.00

Prompt: # get_value(readout= pIC50, system= SARM1 (Homo sapiens)) for O=C(CCc1ccc(Cl)s1)Nc1ccc2c(c1)COc1cnccc1-2
Completion: 5.00 to 6.00

Prompt: # get_value(readout= pIC50, system= SARM1 (Homo sapiens)) for CC(Cc1ccc(F)cc1)C(=O)Nc1ccc2c(c1)COc1cnccc1-2 (centres unmarked)
Completion: 6.00 to 7.00

Prompt: # get_value(readout= pIC50, system= SARM1 (Homo sapiens)) for O=C1[C@@H](Cc2ccc(F)cc2)CCN1c1ccc2c(c1)COc1cnccc1-2
Completion: > 7.00

Prompt: # get_value(readout= pIC50, system= SARM1 (Homo sapiens)) for O=C(NCc1ccc(F)cc1)Nc1cnc2c(c1)COc1cnccc1-2
Completion: > 7.00

Prompt: # get_value(readout= pIC50, system= SARM1 (Homo sapiens)) for O=C1C(Cc2ccc3c(c2)CC3)CCN1c1ccc2c(c1)COc1cnccc1-2 (centres unmarked)
Completion: 5.00 to 6.00

Prompt: # get_value(readout= pIC50, system= SARM1 (Homo sapiens)) for O=C(CCc1ccc(C(F)(F)F)cc1)Nc1ccc2c(c1)COc1cnccc1-2
Completion: 6.00 to 7.00

Prompt: # get_value(readout= pIC50, system= SARM1 (Homo sapiens)) for N#Cc1c(F)cc(CCC(=O)Nc2ccc3c(c2)COc2cnccc2-3)cc1F
Completion: > 7.00

Prompt: # get_value(readout= pIC50, system= SARM1 (Homo sapiens)) for O=C1C(Cc2ccc(C(F)(F)F)cc2)CCN1c1ccc2c(c1)COc1cnccc1-2 (centres unmarked)
Completion: 5.00 to 6.00

Prompt: # get_value(readout= pIC50, system= SARM1 (Homo sapiens)) for O=C(CCc1cccc(F)c1)Nc1cnc2c(c1)COc1cnccc1-2
Completion: > 7.00

Prompt: # get_value(readout= pIC50, system= SARM1 (Homo sapiens)) for O=C(CCc1cccnc1)Nc1ccc2c(c1)COc1cnccc1-2
Completion: 6.00 to 7.00

Prompt: # get_value(readout= pIC50, system= SARM1 (Homo sapiens)) for O=C1C(Cc2ccc3ccsc3c2)CCN1c1ccc2c(c1)COc1cnccc1-2 (centres unmarked)
Completion: 5.00 to 6.00
